target: Vitamin D-binding protein (Rattus norvegicus) (UniProt P04276); test: Displacement of [3H]25-(OH)-D3 from rat plasma Vitamin D binding protein; type: cell-free
Sequence (P04276 whole entry): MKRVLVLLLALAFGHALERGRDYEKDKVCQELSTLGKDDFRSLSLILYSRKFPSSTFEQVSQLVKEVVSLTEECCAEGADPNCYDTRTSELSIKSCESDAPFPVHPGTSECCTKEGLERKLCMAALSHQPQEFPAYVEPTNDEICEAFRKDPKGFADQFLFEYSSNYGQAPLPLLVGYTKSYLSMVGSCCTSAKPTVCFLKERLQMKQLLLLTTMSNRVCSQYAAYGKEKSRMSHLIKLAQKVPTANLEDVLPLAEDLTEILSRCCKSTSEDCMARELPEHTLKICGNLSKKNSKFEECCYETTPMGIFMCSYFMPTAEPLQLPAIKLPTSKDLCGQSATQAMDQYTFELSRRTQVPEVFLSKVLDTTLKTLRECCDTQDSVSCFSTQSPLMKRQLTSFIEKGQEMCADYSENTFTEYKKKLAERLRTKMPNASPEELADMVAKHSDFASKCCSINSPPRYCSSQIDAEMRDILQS
Record form. Attribute: B50. Fill in for each entry.
Could you write the number and then its unit?

# compound, tgt, parameter-measured, measurement
rows = [
    ("C=C1CC[C@H](O)C/C1=C/C=C1\\CCC[C@]2(C)[C@@H]([C@H](C)CCC[C@@](C)(O)CO)CC[C@@H]12", "Vitamin D-binding protein (Rattus norvegicus) (UniProt P04276)", "B50", "4.03 nM"),
]

Lab note: each compound below needs its B50 filled in.
1. C=C1CC[C@H](O)C/C1=C/C=C1\CCC[C@]2(C)[C@@H]([C@H](C)CC[C@@H](O)C(C)(C)O)CC[C@@H]12
2. C=C1CC[C@H](O)C/C1=C/C=C1\CCC[C@]2(C)[C@@H]([C@H](C)CCCC(C)(C)O)CC[C@@H]12 [CALCIFEDIOL ANHYDROUS]
3. C=C1CC[C@H](O)C/C1=C/C=C1\CCC[C@]2(C)[C@@H]([C@H](C)CCCC(C)C)CC[C@@H]12

Result:
1: 3.22 nM; 2: 3.77 nM; 3: 338 nM
